Molecular target: T1, Avi-tag Fc with human IL-2R beta and IL-2R gamma attached (Acrobiosystems ACRB-ILG-H82F3-25UG) (human, UniProt P14784 27-239; P31785 23-262)
T1 construct: Bought; attached to the SAX2 biosensor; also called CD122 CD132; IL-2R βγ; not shown: Fc and Avi-tag
T1 sequence (looked up) 1: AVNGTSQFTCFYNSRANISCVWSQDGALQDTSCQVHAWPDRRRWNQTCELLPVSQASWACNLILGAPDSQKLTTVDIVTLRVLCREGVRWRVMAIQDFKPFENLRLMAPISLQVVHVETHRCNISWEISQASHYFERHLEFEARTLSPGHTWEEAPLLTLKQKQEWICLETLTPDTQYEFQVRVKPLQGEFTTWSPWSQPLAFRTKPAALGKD
T1 sequence (looked up) 2: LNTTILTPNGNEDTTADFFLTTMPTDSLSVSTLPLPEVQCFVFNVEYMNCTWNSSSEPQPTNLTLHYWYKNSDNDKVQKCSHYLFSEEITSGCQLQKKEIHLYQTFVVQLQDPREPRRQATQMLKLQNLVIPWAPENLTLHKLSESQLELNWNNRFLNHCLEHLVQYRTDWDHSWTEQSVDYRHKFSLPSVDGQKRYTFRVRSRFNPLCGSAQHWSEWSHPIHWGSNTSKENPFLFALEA
Experiment: BLI (Octet R8), receptor on SAX2 sensor
[ ]: non-standard residue; d: D form. Ygp = O-(8x polyethylene glycol-amino)-tyrosine (Tyr, amino-capped PEG8); Yn3 = O-(9x polyethylene glycol-azido)-tyrosine (Tyr, azide-capped PEG9); hSer = N[C@@H](CCO)C(=O)O; Nle = CCCC[C@H](N)C(=O)O
ASSAY METRIC: kon (M⁻¹ s⁻¹)
Answers are plain numbers, in M⁻¹ s⁻¹.

State its kon for this binder: CMP-166, MMP2 cleaved (ligand, also: glutaryl-PEG4-peptide bridge Ala1 to Lys23 cut by MMP2, site not given here, ring opened, Tested after MMP2 treatment) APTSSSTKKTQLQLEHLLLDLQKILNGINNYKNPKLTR[Nle]L[hSer][Yn3]KF[Ygp][Nle]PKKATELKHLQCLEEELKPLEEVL[hSer]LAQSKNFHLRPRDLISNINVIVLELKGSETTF[hSer]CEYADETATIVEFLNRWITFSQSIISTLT
567000
